Catalogue of compounds with associated melting point
measurement.name: melting point

1) COc1cc2c(cc1-c1nocc1-c1ccccc1C#N)C(C)(C)CCC2(C)C | 202 to 203 °C
2) Oc1ccc(-c2ccc(O)cc2I)c(I)c1 | 171 to 172 °C
3) COc1ccccc1NC(=O)Nc1nc(Nc2ccccc2-c2ccccc2)nc(N(CC(=O)O)Cc2ccc(F)cc2)n1 | 120 to 125 °C
4) Cc1nc(-c2ccc(C(F)(F)F)cc2)oc1COc1ccc(Cc2nn[nH]n2)cc1 | 208 °C
5) CCOC(=O)c1c(C)cc2c(c1C)c(=O)n(-c1ccccc1Cl)c(=O)n2C(=O)O | 182 to 183 °C
6) CNc1nc(-c2ccc(OCCCn3ccnc3)cc2)no1 | 154 to 155 °C
7) COC(=O)NCC1CN(c2ccc(C3C=CS(=O)(=O)CC3)cc2)C(=O)O1 (stereo not given) | 196 to 197 °C
8) O=c1[nH]c(=Cc2ccc(OCc3ccccc3)cn2)c(=O)[nH]c1=Cc1ccc2c(c1)OCO2 | 255 to 256 °C
9) Nc1ccc(F)c(Br)c1F | 77 to 78 °C
10) CC(C)(C)C#Cc1cc(Cl)cc2c1OC(C(F)(F)F)C(C(=O)O)=C2 (stereo not given) | 218 to 222 °C

###

Catalogue of compounds with associated melting point
measurement.name: melting point

1) COc1cc(CC(=O)O)ccc1OCCNC(=O)C1Cc2ccccc2N1S(=O)(=O)c1ccc(-c2cccc(C(F)(F)F)c2)cc1 (centres undefined) | 89 to 98 °C
2) CC(C)(C)OC(=O)CNc1nccc(-c2nc(=O)c3ccccc3s2)n1 | 247 to 248 °C
3) Cc1ccc(S(=O)(=O)N2[C@@H](CCc3nnco3)CC[C@H]2c2ccc(F)cc2)cc1 (racemic) | 138 °C
4) CN(C(=O)CCCCO/N=C(\c1ccccc1)c1ccc2c(c1)CN1CC(=O)NC1=N2)C1CCCCC1 | 190 °C

###

Catalogue of compounds with associated melting point
measurement.name: melting point

1. CCOC(=O)c1ccc(CN2C(=O)c3ccccc3C2=O)o1 | 108 to 109 °C
2. COC(=O)c1c(C(=O)O)cc2ccc3c(c2c1-c1ccc2c(c1)OCO2)OCO3 | 273 to 275 °C
3. COc1cc(OC)nc(Oc2cccc(Oc3nc(OC)cc(OC)n3)c2CO)n1 | 122 °C
4. CNc1cc2c(c(C)c1F)c(=O)c(C(=O)O)cn2-c1cc(N)c(F)cc1F | > 270 °C
5. CN(C)C(=O)Nc1ccc(Oc2ccc3sncc3c2)c(C(F)(F)F)c1 | 188 °C
6. CSc1nccc(C(C#N)C(=O)c2ccccc2)n1 (stereo not given) | 163 to 164 °C
7. C=CS(=O)CCNC(=O)CCS(=O)(=O)C=C (stereo not given) | 93 °C
8. CCN(CC)c1ccc2nc3c4ccc(Br)cc4c(=Nc4ccccn4)cc-3oc2c1 | 204 to 205 °C
9. COc1ccc(F)cc1NC(=O)Nc1ccc(N2CCN(C(=O)Nc3ccc(OCC(O)CO)cc3C(F)(F)F)CC2)nc1 (stereo not given) | 195 °C
10. NC(=O)c1cc(Cl)cc(-c2cccc3cc(Cc4cccc(C(F)(F)F)c4)sc23)c1 | 139 to 140 °C
11. CS(=O)(=O)c1ccc(C(=O)O)c(F)c1 | 187 to 188 °C
12. OCC1=C(c2cccc3sccc23)N2CCN=C2S1 | 145 to 149 °C
13. CN1CCC(c2c[nH]c3ccc(C(=O)c4ccc5ccccc5c4)cc23)CC1 | 92 °C
14. Nc1sc2c(c1C(=O)c1ccc(Cl)s1)CCN(Cc1ccccc1)C2 | 81 to 83 °C
15. O=c1[nH]nc(-c2ccccc2Nc2cccc(C(F)(F)F)c2)s1 | 157 to 160 °C
16. COCc1nc(C(C)(C)O)c(C(=O)O)n1Cc1ccc(-c2ccccc2C(=O)O)cc1 | 164 to 165 °C
17. CC(=O)OCCn1c(C)c(C(=O)Nc2ccc(OCC(C)(C)C)c(C#N)c2)c2cc(F)ccc21 | 124 to 125 °C
18. O=Cc1ccc(-c2cn(S(=O)(=O)c3ccccc3)c3ccccc23)o1 | 140 °C
19. O=S(=O)(c1ccccc1)c1c[nH]c2ccc(Br)cc12 | 176 to 178 °C
20. CC(C(=O)O)c1ccc(C=C2CCCC2=O)cc1 (stereo not given) | 106 to 107 °C
